Target: T1, monkey MSLN on HEK293T-monkey MSLN recombinant cells (monkey)
T1 construct: Full-length precursor as transfected; processing on the cell is not described; also called HEK293-monkey MSLN
T1 chain: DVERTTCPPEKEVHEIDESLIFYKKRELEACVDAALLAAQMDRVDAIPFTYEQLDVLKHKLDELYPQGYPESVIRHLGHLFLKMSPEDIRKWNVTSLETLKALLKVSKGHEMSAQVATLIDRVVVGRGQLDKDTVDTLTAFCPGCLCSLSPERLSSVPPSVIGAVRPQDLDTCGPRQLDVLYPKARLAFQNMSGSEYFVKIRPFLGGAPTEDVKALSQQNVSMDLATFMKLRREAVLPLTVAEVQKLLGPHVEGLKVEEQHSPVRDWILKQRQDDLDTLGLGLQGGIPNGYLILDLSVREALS
Assay: FACS, HEK293T-monkey MSLN cells
Maximum_MFI values, listed per item
Unit MFI implied. Number only.

Below, each entry is followed by its recorded Maximum_MFI result.
>>> reported_value("F7.33.24 (scFv) QVQLQQPGTELVKPGASVKLSCKASGYTFTSYWMHWVKQRPGQGLEWIGNVNPSNGGSNYNEKFKNKATLTVDKSSSTADMQLNSLTSEDSAVYYCAPHYIGSRPGFAYWGQGTLVTVSGGGGGSGGGGSGGGGSDIVMTQSQKFMSTSVGDRVSVTCKASQNVGTNIAWYQQKPGQSPKALIYSASYRYSGVPDRFTGSGSGTDFTLTITNVQSEDLAEYFCQQYNSYPLTFGGGTKVEIK")
8910
>>> reported_value("F7.33.24-H1 (scFv, not shown: small tags and cut ends, also called S009-F7.33.24 humanized antibody VH1 + VL1) scFv: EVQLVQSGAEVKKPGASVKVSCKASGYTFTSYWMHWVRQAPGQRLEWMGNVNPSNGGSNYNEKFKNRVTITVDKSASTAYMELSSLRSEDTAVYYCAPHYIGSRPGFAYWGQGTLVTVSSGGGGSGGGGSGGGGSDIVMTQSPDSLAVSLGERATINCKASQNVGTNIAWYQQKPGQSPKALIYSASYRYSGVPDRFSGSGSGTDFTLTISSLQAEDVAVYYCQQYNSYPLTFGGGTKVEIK")
9050

Now for the binder whose Maximum_MFI we want.
Task: Tell me the measured Maximum_MFI of F7.33.24-H11 (scFv, not shown: small tags and cut ends, also called S009-F7.33.24 humanized antibody VH2a + VL2) scFv: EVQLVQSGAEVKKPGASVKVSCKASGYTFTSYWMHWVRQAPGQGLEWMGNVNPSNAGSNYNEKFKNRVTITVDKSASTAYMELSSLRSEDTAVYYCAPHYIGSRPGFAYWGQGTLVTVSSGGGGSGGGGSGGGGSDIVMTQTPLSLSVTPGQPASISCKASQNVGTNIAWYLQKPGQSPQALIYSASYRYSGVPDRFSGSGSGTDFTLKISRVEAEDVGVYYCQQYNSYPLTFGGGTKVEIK , please.
Output: 8580
